MEASUREMENT TARGET: mu opiate receptor (MOR) (Rattus norvegicus)
Construct: from tissue; host or cells: rat striatal membrane preparation
MEASUREMENT PROTOCOL: MOR agonist activity using [35S]GTPγS binding assay in striatal membranes
Type: biochemical
CONDITION: 1 μM compound, striatal membranes
So I've got a bunch of compounds here, and I need their MOR agonist activity, [35S]GTPγS binding to Gαo, FLNA-binding compound as agonist 1 μM values.
Give bare numbers, in %.

O=S(=O)(c1ccc2ccccc2c1)N1CCC2(CC1)OCCN2S(=O)(=O)c1ccc2ccccc2c1 [Compound C0140M]: 215.4

Batch request: MOR agonist activity, [35S]GTPγS binding to Gαo, FLNA-binding compound as agonist 1 μM for each of the following compounds.
1. CC(=O)c1ccc(S(=O)(=O)N2CCC3(CC2)NC(=O)CN3Cc2ccccc2)cc1 [Compound C0085M]
2. CC(=O)c1ccc(C(=O)N2CCOC23CCN(S(=O)(=O)c2ccc(C(C)=O)cc2)CC3)cc1 [Compound C0053]
3. O=S(=O)(c1ccc(-c2ccccc2)cc1)N1CCC2(CC1)OCCN2S(=O)(=O)c1ccc(-c2ccccc2)cc1 [Compound C0010]

246.2
157.2
307.0

====

MEASUREMENT TARGET: mu opiate receptor (MOR) (Rattus norvegicus, UniProt P33535)
Construct: from tissue; host or cells: rat striatal membrane preparation
Sequence (P33535 whole entry): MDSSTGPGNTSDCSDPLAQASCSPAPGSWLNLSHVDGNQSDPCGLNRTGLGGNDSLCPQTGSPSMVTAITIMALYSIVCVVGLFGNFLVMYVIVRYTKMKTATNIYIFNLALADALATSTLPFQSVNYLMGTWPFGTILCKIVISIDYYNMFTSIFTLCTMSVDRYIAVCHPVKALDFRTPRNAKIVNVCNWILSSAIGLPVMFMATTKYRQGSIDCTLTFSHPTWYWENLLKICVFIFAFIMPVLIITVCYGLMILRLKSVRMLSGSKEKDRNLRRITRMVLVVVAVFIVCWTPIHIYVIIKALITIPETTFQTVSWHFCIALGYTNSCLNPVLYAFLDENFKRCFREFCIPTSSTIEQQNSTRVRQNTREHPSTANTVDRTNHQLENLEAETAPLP
MEASUREMENT PROTOCOL: MOR agonist activity using [35S]GTPγS binding assay in striatal membranes
Type: biochemical
CONDITION: 1 μM compound + 1 μM β-funaltrexamine
ASSAY ENDPOINT: MOR agonist activity, [35S]GTPγS binding to Gαo, 1 μM + BFNA (%)
Give bare numbers, in %.

# count of solved cases: 3
COc1ccc(C(=O)N2CCC3(CC2)OCCN3C(=O)c2ccc(OC)cc2)cc1 [Compound C0017]: 94.1
NS(=O)(=O)c1ccc(S(=O)(=O)N2CCC3(CC2)OCCN3S(=O)(=O)c2ccc(S(N)(=O)=O)cc2)cc1 [Compound C0034]: 80.1
O=S(=O)(c1cccs1)N1CCC2(CC1)OCCN2S(=O)(=O)c1cccs1 [Compound C0141M]: 47.9

Kindly review the next compound as well.
// Input: O=S(=O)(c1ccc(F)cc1)N1CCC2(CC1)OCCN2S(=O)(=O)c1ccc(F)cc1 [Compound C0029] . Output its MOR agonist activity, [35S]GTPγS binding to Gαo, 1 μM + BFNA only.
16.6

====

MEASUREMENT TARGET: mu opiate receptor (MOR) (Rattus norvegicus, UniProt P33535)
Construct: from tissue; host or cells: rat striatal membrane preparation
MEASUREMENT PROTOCOL: MOR agonist activity using [35S]GTPγS binding assay in striatal membranes
Type: biochemical
CONDITION: 1 μM compound + 1 μM β-funaltrexamine
Experimental: To assess the mu opiate receptor (MOR) agonist activity of positive compounds from the FLNA screening, compounds were tested in a [^35S]GTPγS binding assay using striatal membranes. […] The immunocomplexes so formed were collected by incubation at 25° C. for 30 minutes with 40 μl of agarose-conjugated protein A/G beads and centrifugation at 5,000×g at 4° C. for 5 minutes. […] The radioactivity in the suspension was determined by liquid scintillation spectrometry. […]
So I've got a bunch of compounds here, and I need their MOR agonist activity, [35S]GTPγS binding to Gαo, 1 μM + BFNA values.
Give bare numbers, in %.

# count of solved cases: 4
COc1ccccc1S(=O)(=O)N1CCC2(CC1)OCCN2S(=O)(=O)c1ccccc1OC [Compound C0003]: 107.7
COc1ccc(C(=O)N2CCOC23CCN(S(=O)(=O)c2ccc(OC)cc2)CC3)cc1 [Compound C0019]: 52.8
O=C(OCc1ccccc1)c1ccc(S(=O)(=O)N2CCC3(CC2)OCCN3S(=O)(=O)c2ccc(C(=O)OCc3ccccc3)cc2)cc1 [Compound C0042]: 110.6
COc1ccc(NC(=O)N2CCC3(CC2)OCCN3C(=O)Nc2ccc(OC)cc2)cc1 [Compound C0151M]: 212.8

Batch request: MOR agonist activity, [35S]GTPγS binding to Gαo, 1 μM + BFNA for each of the following compounds.
1. O=C(c1ccc([N+](=O)[O-])cc1)N1CCC2(CC1)OCCN2C(=O)c1ccc([N+](=O)[O-])cc1 [Compound C0032]
2. O=S(=O)(c1cccc2cccnc12)N1CCC2(CC1)OCCN2S(=O)(=O)c1cccc2cccnc12 [Compound C0143M]
3. O=S(=O)(c1ccc(Br)cc1F)N1CCC2(CC1)OCCN2S(=O)(=O)c1ccc(Br)cc1F [Compound C0078]
4. COc1cc(S(=O)(=O)N2CCC3(CC2)OCCN3S(=O)(=O)c2cc(OC)c(OC)c(OC)c2)cc(OC)c1OC [Compound C0062]
5. COc1ccc(S(=O)(=O)N2CCC3(OCCN3S(=O)(=O)c3ccc(OC)cc3)C3CCCCC32)cc1 (centres unmarked) [Compound C0144M]

80.9
86.5
170.7
59.8
125.9

Batch request: MOR agonist activity, [35S]GTPγS binding to Gαo, 1 μM + BFNA for each of the following compounds.
1. CC(=O)c1ccc(S(=O)(=O)N2CCC3(CC2)OCC(CCCCN(C)C)N3S(=O)(=O)c2ccc(C(C)=O)cc2)cc1 (centres unmarked) [Compound C0080M]
2. CC(=O)c1ccc(S(=O)(=O)N2CCC3(CC2)OCCN3S(=O)(=O)c2ccc(C(C)=O)cc2)cc1 [Compound C0011]

1. 167.1
2. 19.0

====

MEASUREMENT TARGET: mu opiate receptor (MOR) (Rattus norvegicus, UniProt P33535)
Construct: from tissue; host or cells: rat striatal membrane preparation
MEASUREMENT PROTOCOL: MOR agonist activity using [35S]GTPγS binding assay in striatal membranes
Type: biochemical
CONDITION: 1 μM compound, striatal membranes
Protocol: To assess the mu opiate receptor (MOR) agonist activity of positive compounds from the FLNA screening, compounds were tested in a [^35S]GTPγS binding assay using striatal membranes. […] The immunocomplexes so formed were collected by incubation at 25° C. for 30 minutes with 40 μl of agarose-conjugated protein A/G beads and centrifugation at 5,000×g at 4° C. for 5 minutes. […] The radioactivity in the suspension was determined by liquid scintillation spectrometry. […]
ASSAY ENDPOINT: MOR agonist activity, [35S]GTPγS binding to Gαo, FLNA-binding compound as agonist 1 μM
// unit must come after the numeric part

CC(C)c1ccc(S(=O)(=O)N2CCC3(CC2)OCCN3S(=O)(=O)c2ccc(C(C)C)cc2)cc1: 195.0%

Batch request: MOR agonist activity, [35S]GTPγS binding to Gαo, FLNA-binding compound as agonist 1 μM for each of the following compounds.
1. O=C(c1ccc([N+](=O)[O-])cc1)N1CCC2(CC1)OCCN2C(=O)c1ccc([N+](=O)[O-])cc1
2. COc1ccccc1S(=O)(=O)N1CCC2(CC1)OCCN2S(=O)(=O)c1ccccc1OC
3. COc1ccc(S(=O)(=O)N2CCC3(CC2)OCCN3S(=O)(=O)c2ccc(C(C)=O)cc2)cc1
4. O=S(=O)(c1ccc(C(F)(F)F)cc1)N1CCC2(CC1)OCCN2S(=O)(=O)c1ccc(C(F)(F)F)cc1
5. CC(O)c1ccc(S(=O)(=O)N2CCC3(CC2)OCCN3S(=O)(=O)c2ccc(C(C)O)cc2)cc1 (stereo not shown)
6. O=C(OCc1ccccc1)c1ccc(S(=O)(=O)N2CCC3(CC2)OCCN3S(=O)(=O)c2ccc(C(=O)OCc3ccccc3)cc2)cc1

1. 202.0%
2. 215.9%
3. 245.3%
4. 224.8%
5. 170.4%
6. 260.9%

====

MEASUREMENT TARGET: mu opiate receptor (MOR) (Rattus norvegicus, UniProt P33535)
Construct: from tissue; host or cells: rat striatal membrane preparation
MEASUREMENT PROTOCOL: MOR agonist activity using [35S]GTPγS binding assay in striatal membranes
Assay type: biochemical
CONDITION: 0.1 μM compound, striatal membranes
So I've got a bunch of compounds here, and I need their MOR agonist activity, [35S]GTPγS binding to Gαo, FLNA-binding compound as agonist 0.1 μM values.

# count of solved cases: 3
Cc1ccccc1S(=O)(=O)N1CCC2(CC1)OCCN2S(=O)(=O)c1ccccc1C: 138.7%
CC(=O)c1ccc(S(=O)(=O)N2CCC3(CC2)NC(=O)CN3Cc2ccccc2)cc1 [Compound C0085M]: 211.6%
O=C(c1ccc([N+](=O)[O-])cc1)N1CCC2(CC1)OCCN2C(=O)c1ccc([N+](=O)[O-])cc1: 145.4%

Batch request: MOR agonist activity, [35S]GTPγS binding to Gαo, FLNA-binding compound as agonist 0.1 μM for each of the following compounds.
1. O=S(=O)(c1cccc(OC(F)(F)F)c1)N1CCC2(CC1)OCCN2S(=O)(=O)c1cccc(OC(F)(F)F)c1
2. CC(=O)c1ccc(S(=O)(=O)N2CCC3(CC2)OCCN3S(=O)(=O)c2ccc(C(C)=O)cc2)cc1
3. O=S(=O)(c1ccc2ccccc2c1)N1CCC2(CC1)OCCN2S(=O)(=O)c1ccc2ccccc2c1 [Compound C0140M]
4. COc1ccc(S(=O)(=O)N2CCOC23CCN(S(=O)(=O)c2ccc(C(C)=O)cc2)CC3)cc1

1: 180.4%; 2: 217.0%; 3: 126.1%; 4: 142.2%

Cited source: patent US8580809B2
